molecular target: PI3K delta (Homo sapiens (Human)); experiment: Enzymatic PI3K delta isoform inhibition (lipid kinase activity, Kinase-Glo luminescence); conditions: Enzymatic assay
Sequence (O00329 other isoform, or with tags, fused parts or gaps linker GGGGGG): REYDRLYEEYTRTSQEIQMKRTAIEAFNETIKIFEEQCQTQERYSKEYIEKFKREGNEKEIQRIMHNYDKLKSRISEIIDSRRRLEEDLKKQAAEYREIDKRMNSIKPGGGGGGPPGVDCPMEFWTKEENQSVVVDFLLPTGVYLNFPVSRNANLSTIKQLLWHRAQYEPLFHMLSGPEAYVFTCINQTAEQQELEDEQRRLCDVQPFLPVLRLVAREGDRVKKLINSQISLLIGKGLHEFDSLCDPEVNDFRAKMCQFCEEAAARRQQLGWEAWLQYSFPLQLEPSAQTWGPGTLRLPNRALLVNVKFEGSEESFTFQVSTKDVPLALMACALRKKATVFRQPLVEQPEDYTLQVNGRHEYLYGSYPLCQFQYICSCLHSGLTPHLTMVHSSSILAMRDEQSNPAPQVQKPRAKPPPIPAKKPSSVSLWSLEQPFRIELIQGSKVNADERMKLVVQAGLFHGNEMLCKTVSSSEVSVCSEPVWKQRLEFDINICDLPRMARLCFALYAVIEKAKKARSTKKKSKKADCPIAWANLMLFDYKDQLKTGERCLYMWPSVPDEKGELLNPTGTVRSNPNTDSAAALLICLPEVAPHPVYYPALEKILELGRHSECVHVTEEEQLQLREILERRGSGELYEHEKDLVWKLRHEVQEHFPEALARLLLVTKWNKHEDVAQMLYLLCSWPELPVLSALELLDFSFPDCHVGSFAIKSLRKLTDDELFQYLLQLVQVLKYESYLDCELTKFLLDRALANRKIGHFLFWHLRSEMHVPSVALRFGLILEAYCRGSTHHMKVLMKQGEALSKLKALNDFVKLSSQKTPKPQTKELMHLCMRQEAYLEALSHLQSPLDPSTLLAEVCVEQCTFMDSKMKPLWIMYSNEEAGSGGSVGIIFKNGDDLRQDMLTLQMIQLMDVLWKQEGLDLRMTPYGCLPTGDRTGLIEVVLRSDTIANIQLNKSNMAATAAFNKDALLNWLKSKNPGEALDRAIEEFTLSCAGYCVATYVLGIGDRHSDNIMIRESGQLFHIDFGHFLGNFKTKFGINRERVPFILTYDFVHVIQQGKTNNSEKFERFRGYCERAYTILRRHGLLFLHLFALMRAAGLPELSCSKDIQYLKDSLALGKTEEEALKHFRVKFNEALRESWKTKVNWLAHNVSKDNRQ
recorded-endpoint: IC50 (nM)

Example entries and their recorded answers appear below.
1. CCC(=O)N1CC[C@H](Oc2ccc3c(c2)N(c2cnc(N)c(C(F)(F)F)c2)CCO3)C1 [Example A17] :: 14
2. Cc1cc(N2CCOc3ccc(O[C@H]4CCN(C(=O)c5cncnc5)C4)cc32)cnc1S(C)(=O)=O [Example B23] :: 28
3. COc1ncc(N2CCOc3ccc(O[C@H]4CCN(C(=O)c5cncnc5)C4)cc32)cc1C#N [Example C13] :: 77

a = COCCC(=O)N1CC[C@H](Oc2ccc3c(c2)N(c2cnc(S(C)(=O)=O)c(C)c2)CCO3)C1 [Example B37]
b = COc1ncc(N2CCOc3ccc(O[C@H]4CCN(C(=O)C5CCOCC5)C4)cc32)cc1C#N [Example C1]
c = COc1ncc(N2CCOc3ccc(O[C@H]4CCN(C(=O)C5CCS(=O)(=O)C5)C4)cc32)cc1F (single isomer, unassigned) [Example H11]
d = CNc1cc(N2CCOc3ccc(O[C@H]4CCN(C(=O)C5CCOCC5)C4)cc32)cnc1S(C)(=O)=O [Example B77]
Asked: Parameters: sort_field (IC50), sort_dir (desc). Your task in answering is to list the labels in the requested order.
Given back: a, d, b, c
(a: 103 nM, d: 32 nM, b: 19 nM, c: 8 nM)

* * *

Target: PI3K delta (Homo sapiens (Human))
Assay: Enzymatic PI3K delta isoform inhibition (lipid kinase activity, Kinase-Glo luminescence)
Conditions: Enzymatic assay
Description: 1.1 Test of Lipid Kinase Activity […] In a more preferred assay, the kinase reaction is performed in a final volume of 10 μl per well of a low volume non-binding CORNING, 384 well black plate (Cat. No. #3676). […] IC50 is determined by a four parameter curve fitting routine that comes along with “excel fit”. […] Alternatively, IC50 values are calculated using idbsXLfit model 204, which is a 4 parameter logistic model. […]
recorded-endpoint: IC50 (nM)

1) Cc1cc(N2CCOc3ccc(O[C@H]4CCN(C(=O)C5CCOC5)C4)cc32)cnc1S(C)(=O)=O (stereo partly drawn) [Example B53] :: 4.5
2) COc1ncc(N2CCOc3ccc(O[C@H]4CCN(C(=O)CC(C)(C)C)C4)cc32)cc1C#N [Example D9] :: 15
3) CCC(=O)N1CC[C@H](Oc2ccc3c(c2)N(c2ccc(OC)c(C(F)(F)F)c2)CCO3)C1 [Example A41] :: 296
4) COc1ncc(N2CCOc3ccc(O[C@H]4CCN(C(=O)C5CCOC5)C4)cc32)cc1C#N (single isomer, unassigned) [Example D28] :: 5
5) COc1cc(N2CCOc3ccc(O[C@H]4CCN(C(=O)C5CCS(=O)(=O)C5)C4)cc32)cnc1OC (stereo partly drawn) [Example B41] :: 25

I = COc1ncc(N2CCOc3ccc(O[C@H]4CCN(C(=O)c5cc[nH]c(=O)c5)C4)cc32)cc1C [Example B91]
II = Cc1cc(N2CCOc3ccc(O[C@H]4CCN(C(=O)c5cocn5)C4)cc32)cnc1S(C)(=O)=O [Example B24]
Asked: I'm curious, which of these has a smaller IC50 number: I or II ? // respond with label for picked entry
Given back: II

A = COc1ncc(N2CCOc3ccc(O[C@H]4CCN(C(=O)c5cncs5)C4)cc32)cc1C#N [Example C14]
B = CCC(=O)N1CC[C@H](Oc2ccc3c(c2)N(c2ccc(OC)nc2)CCO3)C1 [Example C4]
C = Cc1cc(N2CCOc3ccc(O[C@H]4CCN(S(=O)(=O)C5CCOCC5)C4)cc32)cnc1S(C)(=O)=O [Example B81]
D = Cc1cc(N2CCOc3ccc(O[C@H]4CCN(C(=O)C5CCOCC5)C4)cc32)cnc1S(C)(=O)=O [Example B1]
E = COc1ncc(N2CCOc3ccc(O[C@H]4CCN(C(=O)c5ocnc5C)C4)cc32)cc1C#N [Example D33]
Asked: Parameters: sort_field (IC50), sort_dir (desc). Your task in answering is to list the labels in the requested order.
Given back: C, B, D, E, A

A = COc1ncc(N2CCOc3ccc(O[C@H]4CCN(C(=O)C5CCS(=O)(=O)CC5)C4)cc32)cc1C(F)F [Example B119]
B = COc1ncc(N2CCOc3ccc(O[C@H]4CCN(C(=O)CCO)C4)cc32)cc1Cl [Example B107]
Asked: Endpoint returns whichever of A and B has the numerically higher IC50. // respond with label for picked entry
Given back: A
(A: 6 nM, B: 4 nM)
